System: Streptococcus pneumoniae
assayMethodText: Antibacterial activity against Streptococcus pneumoniae 943 by standard dilution assay
Type: functional
In this section we review reported MIC80 values for a set of compounds.

compound: CC[C@H]1OC(=O)[C@H](C)[C@@H](O[C@H]2C[C@@](C)(OC)[C@@H](OC(=O)NCCO[C@@H]3O[C@H](CO)[C@@H](O[C@H]4O[C@H](CO)[C@@H](O)[C@H](O)[C@H]4O)[C@H](O)[C@H]3O)[C@H](C)O2)[C@H](C)[C@@H](O[C@@H]2O[C@H](C)C[C@H](N(C)C)[C@H]2O)[C@](C)(O)C[C@@H](C)CN(C)[C@H](C)[C@H]2OC(=O)O[C@@]21C
unitLabel: µg/mL
MIC80: 8
--
compound: CC[C@H]1OC(=O)[C@H](C)[C@@H](O[C@H]2C[C@@](C)(OC)[C@@H](O)[C@H](C)O2)[C@H](C)[C@@H](O[C@@H]2O[C@H](C)C[C@H](N(C)C)[C@H]2O)[C@](C)(O)C[C@@H](C)C(=O)[C@H](C)[C@@H](O)[C@]1(C)O
unitLabel: µg/mL
MIC80: 8
--
compound: CC[C@H]1OC(=O)[C@H](C)[C@@H](O[C@H]2C[C@@](C)(OC)[C@@H](OC(=O)NCCO[C@@H]3O[C@H](CO)[C@@H](O)[C@H](O)[C@H]3O)[C@H](C)O2)[C@H](C)[C@@H](O[C@@H]2O[C@H](C)C[C@H](N(C)C)[C@H]2O)[C@](C)(O)C[C@@H](C)CN(C)[C@H](C)[C@H]2OC(=O)O[C@@]21C
unitLabel: µg/mL
MIC80: 1
--
compound: CC[C@H]1OC(=O)[C@H](C)[C@@H](O[C@H]2C[C@@](C)(OC)[C@@H](OC(=O)NCCO[C@@H]3O[C@H](CO)[C@H](O)[C@H](O)[C@H]3O)[C@H](C)O2)[C@H](C)[C@@H](O[C@@H]2O[C@H](C)C[C@H](N(C)C)[C@H]2O)[C@](C)(O)C[C@@H](C)CN(C)[C@H](C)[C@H]2OC(=O)O[C@@]21C
unitLabel: µg/mL
MIC80: 1
--
compound: CC[C@H]1OC(=O)[C@H](C)[C@@H](O[C@H]2C[C@@](C)(OC)[C@@H](OC(=O)NCCO[C@@H]3O[C@H](CO)[C@@H](O[C@@H]4O[C@H](CO)[C@@H](O)[C@H](O)[C@H]4O)[C@H](O)[C@H]3O)[C@H](C)O2)[C@H](C)[C@@H](O[C@@H]2O[C@H](C)C[C@H](N(C)C)[C@H]2O)[C@](C)(O)C[C@@H](C)CN(C)[C@H](C)[C@H]2OC(=O)O[C@@]21C
unitLabel: µg/mL
MIC80: 8
--
compound: CC[C@H]1OC(=O)[C@H](C)[C@@H](O[C@H]2C[C@@](C)(OC)[C@@H](OC(=O)NCCO[C@@H]3O[C@H](CO)[C@@H](O)[C@H]3O)[C@H](C)O2)[C@H](C)[C@@H](O[C@@H]2O[C@H](C)C[C@H](N(C)C)[C@H]2O)[C@](C)(O)C[C@@H](C)CN(C)[C@H](C)[C@H]2OC(=O)O[C@@]21C
unitLabel: µg/mL
MIC80: 4

The measurements presented in this section are drawn from ChEMBL document CHEMBL2417544.
